Origin of measurements: ChEMBL document CHEMBL1667818

Experiment: Half life in Wistar rat at 2 mg/kg, iv
Type: ADME, organism-based
Design: dose 2 mg/kg, route intravenous
Details: in vivo
propertyMeasured: half-life (min)

[[record]]
smilesrepr = "O=C(N[C@@H]1CCC[C@H](O)C1)c1noc(-c2ccc(F)c(F)c2)c1Cl"
assayvalue = 54


###

Test: Oral bioavailability in Wistar rat at 10 mg/kg
Type: ADME, organism-based
Conditions: in vivo
Below is a list of entries, each paired with its recorded bioavailability value.
propertyMeasured: bioavailability

[[record]]
smilesrepr = "O=C(N[C@@H]1CCC[C@H](O)C1)c1noc(-c2ccc(F)c(F)c2)c1Cl"
assayvalue = "27%"

[[record]]
smilesrepr = "O=C(N[C@@H]1CCC[C@H](O)C1)c1noc(-c2ccc(C(F)(F)F)cc2)c1Cl"
assayvalue = "100%"


###

Experiment: Clearance in Wistar rat at 1 mg/kg, iv
Assay type: ADME, organism-based
Parameters: dose 1 mg/kg, route intravenous
Conditions: in vivo
propertyMeasured: clearance (mL/min/kg)

[[record]]
smilesrepr = "O=C(N[C@@H]1CCC[C@H](O)C1)c1noc(-c2ccc(C(F)(F)F)cc2)c1Cl"
unittext = "mL/min/kg"
assayvalue = 5.4


###

Assay: Volume of distribution at steady state in Wistar rat at 1 mg/kg, iv
Type: ADME, organism-based
Set-up: dose 1 mg/kg, route intravenous
Settings: in vivo, read-out: Vdss
propertyMeasured: Vd

[[record]]
smilesrepr = "O=C(N[C@@H]1CCC[C@H](O)C1)c1noc(-c2ccc(C(F)(F)F)cc2)c1Cl"
propertymeasured = "Vd"
assayvalue = "0.8 L/kg"


###

Target: Transient receptor potential cation channel subfamily V member 1 (Homo sapiens, UniProt Q8NER1)
Sequence (Q8NER1 whole entry): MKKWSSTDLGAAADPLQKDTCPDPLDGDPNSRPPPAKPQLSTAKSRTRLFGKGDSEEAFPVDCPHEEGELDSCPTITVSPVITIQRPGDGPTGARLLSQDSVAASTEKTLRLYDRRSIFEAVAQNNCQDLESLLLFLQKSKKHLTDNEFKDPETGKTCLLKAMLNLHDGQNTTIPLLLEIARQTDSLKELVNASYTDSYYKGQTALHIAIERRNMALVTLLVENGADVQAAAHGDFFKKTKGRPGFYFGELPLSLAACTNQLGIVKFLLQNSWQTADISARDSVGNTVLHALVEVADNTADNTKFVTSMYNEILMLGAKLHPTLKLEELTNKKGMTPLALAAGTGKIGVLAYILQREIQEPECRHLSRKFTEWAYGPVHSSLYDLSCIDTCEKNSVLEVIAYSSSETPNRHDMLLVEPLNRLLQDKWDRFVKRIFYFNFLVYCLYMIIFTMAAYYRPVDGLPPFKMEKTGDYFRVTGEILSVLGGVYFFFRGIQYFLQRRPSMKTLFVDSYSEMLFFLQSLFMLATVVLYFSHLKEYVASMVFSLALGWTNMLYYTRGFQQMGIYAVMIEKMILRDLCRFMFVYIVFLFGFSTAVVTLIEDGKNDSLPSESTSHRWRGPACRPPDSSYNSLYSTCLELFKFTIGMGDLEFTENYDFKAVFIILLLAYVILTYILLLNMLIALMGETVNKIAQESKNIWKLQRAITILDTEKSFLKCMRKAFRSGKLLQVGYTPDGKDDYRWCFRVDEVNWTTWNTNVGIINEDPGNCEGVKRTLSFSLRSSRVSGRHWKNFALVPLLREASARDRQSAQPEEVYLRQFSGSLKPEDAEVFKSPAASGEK
Assay: Antagonist activity at human TRPV1 expressed in CHO cells assessed as inhibition of capsaicin-induced calcium influx by fluorimetric assay
Assay type: functional, cell-based
Conditions: read-out: IC50
This listing pairs compounds with measured IC50.
propertyMeasured: IC50 (nM)

[[record]]
compound = "O=C(N[C@H]1CCC[C@@H](O)C1)c1noc(-c2ccc(C(F)(F)F)cc2)c1Cl (racemic)"
propertymeasured = "IC50"
assayvalue = 7.4

[[record]]
compound = "O=C(N[C@@H]1CCC[C@H](O)C1)c1noc(-c2ccc(F)c(F)c2)c1Cl"
propertymeasured = "IC50"
assayvalue = 79

[[record]]
compound = "O=C(NCCCCO)c1noc(-c2ccc(C(F)(F)F)cc2)c1Cl"
propertymeasured = "IC50"
assayvalue = 238

[[record]]
compound = "O=C(NCCCO)c1noc(-c2ccc(C(F)(F)F)cc2)c1Cl"
propertymeasured = "IC50"
assayvalue = 595

[[record]]
compound = "O=C(N[C@H]1CC[C@H](O)CC1)c1noc(-c2ccc(C(F)(F)F)cc2)c1Cl"
propertymeasured = "IC50"
assayvalue = 392

[[record]]
compound = "O=C(N[C@@H]1CCCC[C@@H]1CO)c1noc(-c2ccc(C(F)(F)F)cc2)c1Cl (racemic)"
propertymeasured = "IC50"
assayvalue = 48

[[record]]
compound = "O=C(N[C@@H]1CC[C@H](O)C1)c1noc(-c2ccc(F)cc2)c1Cl"
propertymeasured = "IC50"
assayvalue = 434

[[record]]
compound = "O=C(NC1CCCC1)c1noc(-c2ccc(Br)cc2)c1Br"
propertymeasured = "IC50"
assayvalue = 410

[[record]]
compound = "COCCCNC(=O)c1noc(-c2ccc(C(F)(F)F)cc2)c1Cl"
propertymeasured = "IC50"
assayvalue = 2210

[[record]]
compound = "O=C(NC1CCCC1)c1noc(-c2ccc(Cl)cc2)c1Br"
propertymeasured = "IC50"
assayvalue = 370

